- measurement_target: T1, human Jagged 1-Fc (extracellular domain of human Jagged 1 fused to the Fc portion of human IgG1); R&D Systems … (human, UniProt P78504 34-1067)
- T1 construct: extracellular domain; Bought reagent; also called hJag1; h Jagged 1; not shown: Fc portion of human IgG1
- test_details: BLI (Octet), Jagged-Fc on anti-human Fc tips, Fab in solution
quantity_kind: koff (s⁻¹)
Numbers only here, please. The scale is s⁻¹.

Solved entries:
binder | koff [s⁻¹]
4E11 Fab (Fab, V domains shown, C-terminally His-tagged Fab from the periplasm of E. coli) VH: EVQLLESGGGLVQPGGSLRLSCAASGFTFSSYAMSWVRQAPGKGLEWVSSIEPMGQLTEYADSVKGRFTISRDNSKNTLYLQMNSLRAEDTAVYYCAKDIGGRSAFDYWGQGTLVTVSS VL: DIQMTQSPSSLSASVGDRVTITCRASQSISSYLNWYQQKPGKAPKLLIYAASSLQSGVPSRFSGSGSGTDFTLTISSLQPEDFATYYCQQALDAPLMFGQGTKVEIKR | 0.0014
6F8 Fab (Fab, V domains shown, C-terminally His-tagged Fab from the periplasm of E. coli; As printed its variable domains equal those of 6B7) VH: EVQLLESGGGLVQPGGSLRLSCAASGFTFSSYAMSWVRQAPGKGLEWVSSIDEMGWQTYYADSVKGRFTISRDNSKNTLYLQMNSLRAEDTAVYYCAKSAAAFDYWGQGTLVTVSS VL: DIQMTQSPSSLSASVGDRVTITCRASQSISSYLNWYQQKPGKAPKLLIYAASSLQSGVPSRFSGSGSGTDFTLTISSLQPEDFATYYCQQALVAPLTFGQGTKVEIKR | 0.0012
4B2 Fab (Fab, V domains shown, C-terminally His-tagged Fab from the periplasm of E. coli) VH: EVQLLESGGGLVQPGGSLRLSCAASGFTFSSYAMSWVRQAPGKGLEWVSSIEQMGWQTYYADSVKGRFTISRDNSKNTLYLQMNSLRAEDTAVYYCAKDIGGRSAFDYWGQGTLVTVSS VL: DIQMTQSPSSLSASVGDRVTITCRASQSISSYLNWYQQKPGKAPKLLIYAASSLQSGVPSRFSGSGSGTDFTLTISSLQPEDFATYYCQQTLDAPPQFGQGTKVEIKR | 0.0005

Consider the record given below.
Identify the reported koff for the following entry. 4E7 Fab (Fab, V domains shown, C-terminally His-tagged Fab from the periplasm of E. coli) VH: EVQLLESGGGLVQPGGSLRLSCAASGFTFSSYAMSWVRQAPGKGLEWVSSIEEMGWQTKYADSVKGRFTISRDNSKNTLYLQMNSLRAEDTAVYYCAKSAAAFDYWGQGTLVTVSS VL: DIQMTQSPSSLSASVGDRVTITCRASQSISSYLNWYQQKPGKAPKLLIYAASSLQSGVPSRFSGSGSGTDFTLTISSLQPEDFATYYCQQSLVAPLTFGQGTKVEIKR
0.00069
